Collected pKi values appear next to each entry.
Target: AgifCSP5 (Aphidius gifuensis, UniProt A0A3Q9ELG9)
Sequence (A0A3Q9ELG9 entry or part of it): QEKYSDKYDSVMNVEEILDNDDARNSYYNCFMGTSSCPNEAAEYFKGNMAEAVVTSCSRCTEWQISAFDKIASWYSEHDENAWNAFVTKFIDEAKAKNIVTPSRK
Experiment: Fluorescence competitive binding assay with 1-NPN probe, wild-type AgifCSP5
Note: pKi values are expressed as the negative base-10 logarithm of concentration in M.

Prompt: Entry CCCCCCCCCCCCCCCCCO has what pKi?
Completion: 4.80

Prompt: Entry C=CC(C)(O)CCC=C(C)C (centres unmarked) has what pKi?
Completion: 4.72

Prompt: Entry CCC/C=C/C=O [trans-2-Hexen-1-al] has what pKi?
Completion: 4.87

Prompt: Entry CC/C=C\CC=O [cis-3-Hexenal] has what pKi?
Completion: 4.66

Prompt: Entry CCCCCCCCCCCCCC=O has what pKi?
Completion: 4.82

###

Biological target: Y75A mutant of AgifCSP5 (Aphidius gifuensis, UniProt A0A3Q9ELG9, Y95A)
Sequence (A0A3Q9ELG9 entry or part of it Y95A): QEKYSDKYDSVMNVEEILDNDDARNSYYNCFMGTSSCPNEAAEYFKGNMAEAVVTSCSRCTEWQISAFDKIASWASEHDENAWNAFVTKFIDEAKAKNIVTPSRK
Test: Fluorescence competitive binding assay, Y75A mutant
READOUT: Kd (µM)
Could you give me the number in µM? Just the number is fine.

Prompt: Checklist item: Kd tested on Y75A mutant of AgifCSP5 (Aphidius gifuensis, UniProt A0A3Q9ELG9, Y95A), entry c1ccc(Nc2cccc3ccccc23)cc1 [1-NPN, N-phenyl-1-naphthylamine, reference compound] , value?
Completion: 3.13

###

Target: R24A mutant of AgifCSP5 (Aphidius gifuensis, UniProt A0A3Q9ELG9, R44A)
Sequence (A0A3Q9ELG9 entry or part of it R44A): as the sequence (A0A3Q9ELG9 entry or part of it Y95A) above, with R24A, A75Y counted along it
Assay: Fluorescence competitive binding assay, R24A mutant
Collected pIC50 values appear next to each entry.
Note: pIC50 values are expressed as the negative base-10 logarithm of concentration in M.

CCC/C=C/C=O [trans-2-Hexen-1-al] = 4.82
CC/C=C\CC1C(=O)CCC1CC(=O)OC (stereo not drawn) [Methyl jasmonate] = 5.05
CCCCCC/C=C/C=O [trans-2-Nonenal] = 4.59

Prompt: Entry CCCC/C=C\CCO [cis-3-Octen-1-ol] has what pIC50?
Completion: 4.72

Prompt: Entry C=C1CCC2(C(C)C)CC12 (stereo not drawn) has what pIC50?
Completion: 4.65

Prompt: Entry O=Cc1ccccc1 has what pIC50?
Completion: 4.76

###

Molecular target: Y75A mutant of AgifCSP5 (Aphidius gifuensis, UniProt A0A3Q9ELG9, Y95A)
Test: Fluorescence competitive binding assay, Y75A mutant
READOUT: pIC50
Note: pIC50 values are expressed as the negative base-10 logarithm of concentration in M.

CCC/C=C/C=O [trans-2-Hexen-1-al] = 4.84
CCCC/C=C\CCO [cis-3-Octen-1-ol] = 4.64
CC/C=C\CC1C(=O)CCC1CC(=O)OC (stereo not drawn) [Methyl jasmonate] = 4.53

Lab note: next molecule to report on.
Prompt: Entry C=C1CCC2(C(C)C)CC12 (stereo not drawn) [Sabinene] has what pIC50?
Completion: 4.58

###

Target: Y75A mutant of AgifCSP5 (Aphidius gifuensis, UniProt A0A3Q9ELG9, Y95A)
Experiment: Fluorescence competitive binding assay, Y75A mutant
READOUT: Ki (µM)
Could you give me the number in µM? Just the number is fine.

Example entries begin here.
CCC/C=C/C=O [trans-2-Hexen-1-al] = 10.4
CC/C=C\CC1C(=O)CCC1CC(=O)OC (stereo not shown) [Methyl jasmonate] = 21.1
CCCC/C=C\CCO [cis-3-Octen-1-ol] = 16.3

Lab note: next compound to report on.
Prompt: Entry C=C1CCC2(C(C)C)CC12 (stereo not shown) [Sabinene] has what Ki?
Completion: 18.6
